# Test system: T-Rex 293 cell line SC3 cells lacking increased expression of androgen receptor protein
# PROCEDURE TEXT: Cellular growth inhibition, T-Rex 293 SC3 cells without doxycycline, CellTiter-Glo
# Type: cell-based
# CONDITION PARAMETERS: 72 h, T-Rex 293 SC3 cells not exposed to doxycycline, CellTiter-Glo 2.0
Collected GI50 values appear next to each entry.

A selection of reference data follows.
{"columns": ["CHEMICAL SMILES", "GI50"],
 "data": [
  ["Cc1sc2c(c1C)C(c1cccc(OCCOCCOCCOC3CCN(c4ncc(C(=O)N[C@H]5C(C)(C)[C@H](Oc6ccc(C#N)c(Cl)c6)C5(C)C)cn4)CC3)c1)=N[C@@H](CC(=O)O)c1nnc(C)n1-2", "> 3000 nM"],
  ["CC[C@@H]1N=C(c2ccc(C#CC3CC4(C3)CN(c3ncc(C(=O)N[C@H]5C(C)(C)[C@H](Oc6ccc(C#N)c(Cl)c6)C5(C)C)cn3)C4)cc2)c2c(sc(C)c2C)-n2c(C)nnc21", "500 to 1500 nM"],
  ["Cc1sc2c(c1C)C(c1ccc(-c3csnc3OC3CCN(c4ncc(C(=O)N[C@H]5C(C)(C)[C@H](Oc6ccc(C#N)c(Cl)c6)C5(C)C)cn4)CC3)cc1)=N[C@@H](Cc1ncco1)c1nnc(C)n1-2", "> 3000 nM"],
  ["Cc1sc2c(c1C)C(c1ccc(CCC[C@H]3CCCN(c4ncc(C(=O)N[C@H]5C(C)(C)[C@H](Oc6ccc(C#N)c(Cl)c6)C5(C)C)cn4)C3)cc1)=N[C@@H](C)c1nnc(C)n1-2", "> 3000 nM"]
]}

Lab note: need GI50 for Cc1sc2c(c1C)C(c1ccc(C#CCN3CCN(c4ncc(C(=O)N[C@H]5C(C)(C)[C@H](Oc6ccc(C#N)c(Cl)c6)C5(C)C)cn4)CC3)cc1)=N[C@@H](Cc1ncco1)c1nnc(C)n1-2 on T-Rex 293 cell line SC3 cells lacking increased expression of androgen receptor protein, anyone have it?
< 500 nM

====

# System: T47D cells
# PROCEDURE TEXT: Cellular growth inhibition assay for T47D cells, CellTiter-Glo
# Format: cell-based, human
# CONDITION PARAMETERS: 72 hours treatment, CellTiter-Glo 2.0 cell viability
# key: entry, value: GI50

{"columns": ["COMPOUND", "GI50"],
 "data": [
  ["Cc1sc2c(c1C)C(c1ccc(CC3CCC4(C3)CN(c3ncc(C(=O)N[C@H]5C(C)(C)[C@H](Oc6ccc(C#N)c(Cl)c6)C5(C)C)cn3)CCO4)cc1)=N[C@@H](C)c1nnc(C)n1-2 (stereo partly drawn) [Compound I-620]", "500 to 1500 nM"],
  ["Cc1sc2c(c1C)C(c1ccc(CC3CC(OC4CCN(c5ncc(C(=O)N[C@H]6C(C)(C)[C@H](Oc7ccc(C#N)c(Cl)c7)C6(C)C)cn5)CC4)C3)cc1)=N[C@@H](C)c1nnc(C)n1-2 (stereo partly drawn) [Compound I-446]", "< 500 nM"]
]}

Kindly consider the entry below.
Give T47D cells GI50 for Cc1sc2c(c1C)C(c1ccc(C#CC3CC(Cc4ncc(C(=O)N[C@H]5C(C)(C)[C@H](Oc6ccc(C#N)c(Cl)c6)C5(C)C)cn4)C3)cc1)=NC(Cc1ncco1)c1nnc(C)n1-2 (stereo partly drawn) [Compound I-561]
< 500 nM

====

Parameter: GI50. Scope: all listed entries.
# System: T-Rex 293 cell line SC3 cells lacking increased expression of androgen receptor protein
# PROCEDURE TEXT: Cellular growth inhibition, T-Rex 293 SC3 cells without doxycycline, CellTiter-Glo
# Type: cell-based
# CONDITION PARAMETERS: 72 h, T-Rex 293 SC3 cells not exposed to doxycycline, CellTiter-Glo 2.0

Example entries begin here.
{"columns": ["COMPOUND", "ASSAY RESULT"],
 "data": [
  ["Cc1sc2c(c1C)C(c1ccc(O[C@H]3CC[C@]4(CCN(c5ncc(C(=O)N[C@H]6C(C)(C)[C@H](Oc7ccc(C#N)c(Cl)c7)C6(C)C)cn5)C4)C3)cc1)=N[C@@H](Cc1ncco1)c1nnc(C)n1-2 [Compound I-175]", "< 500 nM"],
  ["CCNC(=O)C[C@@H]1N=C(c2ccc(OCCCCc3ncc(C(=O)N[C@H]4C(C)(C)[C@H](Oc5ccc(C#N)c(Cl)c5)C4(C)C)cn3)cc2)c2c(sc(C)c2C)-n2c(C)nnc21 [Compound I-86]", "1500 to 3000 nM"],
  ["Cc1sc2c(c1C)C(c1ccc(O[C@H]3CO[C@@]4(CCCN(c5ncc(C(=O)N[C@H]6C(C)(C)[C@H](Oc7ccc(C#N)c(Cl)c7)C6(C)C)cn5)C4)C3)cc1)=N[C@@H](Cc1ncco1)c1nnc(C)n1-2 [Compound I-186]", "< 500 nM"],
  ["Cc1sc2c(c1C)C(c1ccc(N3C[C@H]4C[C@@H]3CN4c3ncc(C(=O)N[C@H]4C(C)(C)[C@H](Oc5ccc(C#N)c(Cl)c5)C4(C)C)cn3)cc1)=NC(Cc1ncco1)c1nnc(C)n1-2 (stereo partly drawn) [Compound I-665]", "< 500 nM"],
  ["Cc1sc2c(c1C)C(c1ccc(Cl)cc1)=N[C@H](CC(=O)NCCOCCOCCOCCOCCN(C)c1ncc(C(=O)N[C@H]3C(C)(C)[C@H](Oc4ccc(C#N)c(Cl)c4)C3(C)C)cn1)c1nnc(C)n1-2 [Compound I-19]", "> 3000 nM"]
]}

State the recorded GI50 for this entry: Cc1sc2c(c1C)C(c1ccc(C[C@H]3C[C@]4(CCCN(c5ncc(C(=O)N[C@H]6C(C)(C)[C@H](Oc7ccc(C#N)c(Cl)c7)C6(C)C)cn5)C4)C3)cc1)=N[C@@H](C)c1nnc(C)n1-2 [Compound I-394]
> 3000 nM

Any idea what GI50 was measured for Cc1sc2c(c1C)C(c1ccc(N3CCC[C@H](C(=O)N4CCC[C@@H](c5ncc(C(=O)N[C@H]6C(C)(C)[C@H](Oc7ccc(C#N)c(Cl)c7)C6(C)C)cn5)C4)C3)cc1)=N[C@H](Cc1ncco1)c1nnc(C)n1-2 [Compound I-339] ?
> 3000 nM

Item Cc1sc2c(c1C)C(c1ccc([C@H]3CCCN(c4ncc(C(=O)N[C@H]5C(C)(C)[C@H](Oc6ccc(C#N)c(Cl)c6)C5(C)C)cn4)C3)cc1)=N[C@@H](Cc1ncco1)c1nnc(C)n1-2 [Compound I-302] has what recorded GI50?
500 to 1500 nM

Any idea what GI50 was measured for Cc1sc2c(c1C)C(c1ccc(O[C@H]3CCC4(CCN(c5ncc(C(=O)N[C@H]6C(C)(C)[C@H](Oc7ccc(C#N)c(Cl)c7)C6(C)C)cn5)CC4)C3)cc1)=N[C@@H](Cc1ncco1)c1nnc(C)n1-2 [Compound I-173] ?
> 3000 nM

====

Measured Kd, listed per entry.
# STUDY SYSTEM: BRD4-BD2 (Homo sapiens)
# PROCEDURE TEXT: bromoKdELECT assay for binding affinity to BRD4-BD2
# CONDITION PARAMETERS: Table 7

Below, 5 compounds whose answers are already recorded.
{"columns": ["CHEMICAL SMILES", "Kd"],
 "data": [
  ["CCN(C)C(=O)C[C@@H]1N=C(c2ccc(CCCOC3CCN(c4ncc(C(=O)N[C@H]5C(C)(C)[C@H](Oc6ccc(C#N)c(Cl)c6)C5(C)C)cn4)CC3)cc2)c2c(sc(C)c2C)-n2c(C)nnc21", "> 2.5 µM"],
  ["Cc1sc2c(c1C)C(c1ccc(CCCOC3CCN(c4ncc(C(=O)N[C@H]5C(C)(C)[C@H](Oc6ccc(C#N)c(Cl)c6)C5(C)C)cn4)CC3)cc1)=N[C@@H](C)c1nnc(C)n1-2", "> 2.5 µM"],
  ["CCNC(=O)C[C@@H]1N=C(c2ccc(OCCOC3CCN(c4ncc(C(=O)N[C@H]5C(C)(C)[C@H](Oc6ccc(C#N)c(Cl)c6)C5(C)C)cn4)CC3)c(F)c2F)c2c(sc(C)c2C)-n2c(C)nnc21", "0.05 to 0.5 µM"],
  ["CCNC(=O)C[C@@H]1N=C(c2ccc(N(C)CCN3CCN(c4ncc(C(=O)N[C@H]5C(C)(C)[C@H](Oc6ccc(C#N)c(Cl)c6)C5(C)C)cn4)CC3)cc2)c2c(sc(C)c2C)-n2c(C)nnc21", "0.5 to 2.5 µM"],
  ["CCNC(=O)C[C@@H]1N=C(c2ccc(N3CCC(N(C)C4CCN(c5ncc(C(=O)N[C@H]6C(C)(C)[C@H](Oc7ccc(C#N)c(Cl)c7)C6(C)C)cn5)CC4)CC3)cc2)c2c(sc(C)c2C)-n2c(C)nnc21", "0.05 to 0.5 µM"]
]}

Query compound follows.
Can you look up Kd on BRD4-BD2 (Homo sapiens) for CCNC(=O)C[C@@H]1N=C(c2ccc(N(C)C3CN(CC4CCN(c5ncc(C(=O)N[C@H]6C(C)(C)[C@H](Oc7ccc(C#N)c(Cl)c7)C6(C)C)cn5)CC4)C3)cc2)c2c(sc(C)c2C)-n2c(C)nnc21 ?
0.05 to 0.5 µM
